These data points were gathered from ChEMBL document CHEMBL1201862.

Listing of recorded GI50 by entry.
- Tested on: NCI/ADR-RES
- PROCEDURE_TEXT: NCI tumour cell line growth inhibition, 48 h
Active and inactive are the calls of the source. Rule as the data show it: active = GI50 up to about 1.1 µM and inactive = higher.
OBSERVATION_TYPE: GI50

NC(=O)C(=O)c1ncn(Cc2ccccc2)c1N    > 100 µM (inactive)
CC1(C)N=c2c(ncn2CCO)=C(C(N)=O)N1    > 100 µM (inactive)
CC1CC(C)C(O)C(C2CC(CC(=O)NC3CCCCC3)CC(=O)O2)C1 (centres undefined)    > 100 µM (inactive)
COC(=O)C1(C)OC(C)=NC1(C(=O)OC)C(=O)OC (centres undefined)    > 100 µM (inactive)

---

- Tested on: COLO 205
- PROCEDURE_TEXT: NCI tumour cell line growth inhibition, 48 h
Activity calls are given as the source filed them. Cut-off read from the data, not from the text of the source: active = GI50 up to about 1.1 µM and inactive = higher.
Reported GI50 values for the following compounds.
OBSERVATION_TYPE: GI50

CCOC(=O)c1c(NC(=S)Nc2ccc(C)cc2)sc2c1CCN(C)C2    > 100 µM (inactive)
Clc1ccc(C(Cc2ccccc2)c2c(Cl)nc(N3CCNCC3)nc2Cl)cc1 (stereo not given)    1.73 µM (inactive)
C/C(=C\CNc1ncnc2[nH]c(Cl)nc12)CO    > 100 µM (inactive)
N#CC1=C(N)n2c(s/c(=C\c3ccc(Cl)cc3)c2=O)=C(c2nc3ccccc3[nH]2)C1c1ccc(Cl)cc1 (stereo not given)    2.51 µM (inactive)
CC(=O)NNc1nc(C)c(C(/C=C/c2ccc(NC(C)=O)cc2)=N/NS(=O)(=O)c2ccc(C)cc2)s1    > 100 µM (inactive)

---

Recorded GI50, one value per entry.
- Tested on: SW-620
- PROCEDURE_TEXT: NCI tumour cell line growth inhibition, 48 h
Active and inactive are the calls of the source. Rule as the data show it: active = GI50 up to about 1.1 µM and inactive = higher.
OBSERVATION_TYPE: GI50

CCC1=C(C(C)=O)[C@@H]2CCCCC[C@@H](C(=O)OC)C2C1=O (stereo partly specified)    > 100 µM (inactive)
Cn1nnc2c(C(N)=S)ncn2c1=O    > 100 µM (inactive)
CC1=NN(c2ccccc2)C(=O)C1=C1SCCS1    > 38.3 µM (inactive)
O=C1C(Cl)=C(N2CCN(C3=C(Cl)C(=O)c4ccccc4C3=O)CC2)C(=O)c2ccccc21    1.17 µM (inactive)
O=C(CCC(=O)N/N=C/c1ccccc1O)N/N=C/c1ccccc1O    > 100 µM (inactive)
FC1=C2CCCCCC2SC1(F)F (stereo unspecified)    14.8 µM (inactive)

---

- Test system: OVCAR-4
- PROCEDURE_TEXT: NCI tumour cell line growth inhibition, 48 h
The source made the active and inactive calls. Rule as the data show it: active = GI50 up to about 1.1 µM and inactive = higher.
Outcomes: Yes (active), No (inactive)

O=C1CSC(c2c[nH]c3ccccc23)N1c1ccc(Cl)cc1 (stereo not given)    No
CC(C)(C)C=C=C(C(C)(C)C)P(=O)(O)O    No
Cn1nnc2c(C(N)=S)ncn2c1=O    No
CC[C@H](C)[C@@H]([C@@H](CC(=O)N1CCC[C@H]1[C@H](OC)[C@@H](C)C(=O)NCCc1ccccc1)OC)N(C)C(=O)C(NC(=O)[C@H](C(C)C)N(C)C)C(C)C (stereo not given in full)    Yes
C#CCOC(=O)[C@@H](C)c1ccc2cc(OC)ccc2c1    No
CCc1cccc(C(C)CC)c1NC(=O)C(=O)Cc1nc2ccccc2o1 (stereo not given)    No
O=[N+]([O-])c1ccccc1S(=O)(=O)c1ccccc1[N+](=O)[O-]    No
CCOC(=O)Cn1c(=O)c2nc(SC)sc2n(CC)c1=S    No
O=C(Nc1nc2ncn(CCOC(=O)c3ccccc3)c2c(=S)[nH]1)c1ccccc1    No
COc1cc2c(cc1OC)C(=O)Cc1ccc3c(c1CNCC2)OCO3    No

---

- Tested on: SNB-78
- PROCEDURE_TEXT: NCI tumour cell line growth inhibition, 48 h
Calls of active or inactive are those of the source. Cut-off read from the data, not from the text of the source: active = GI50 up to about 1.1 µM and inactive = higher.
Outcome codes: TRUE = active, FALSE = inactive

O=S(O)c1cc(Cl)c(O)c(Cl)c1    FALSE
c1ccc([P+](c2ccccc2)(c2ccccc2)C2Sc3ccccc3S2)cc1    FALSE
Cc1cc(C(O)CCCc2ccccc2)cc(C)c1O (stereo not given)    FALSE
CC1C2=CC=C(O2)C(C)(C)C2=CC=C(O2)C(C)(C)C2=CC=C(O2)C(C)(C)C2=CC=C1O2    FALSE
Cc1ccc(SC(CCC(Sc2ccc(C)cc2)Sc2ccc(C)cc2)Sc2ccc(C)cc2)cc1    FALSE
CCOC(=O)c1ccc(O)cc1 [ETHYLPARABEN]    FALSE
CC1CN1c1c(C(=O)/C=C/c2ccc(Cl)cc2)c(-c2ccccc2)nn(C)c1=O (stereo not given)    FALSE
O=C1C(Cl)=C(N2CCN(C3=C(Cl)C(=O)c4ccccc4C3=O)CC2)C(=O)c2ccccc21    TRUE
CCOc1ccc2c(c1)[n+]([O-])c(S(=O)(=O)c1ccc(C)cc1)c(N)[n+]2[O-]    FALSE
CC(C)c1cccc2sc(NC(=O)C(=O)C(C#N)c3cccc4ccccc34)nc12 (stereo not given)    FALSE

---

Reported GI50 values for the following compounds.
- Tested on: M14
- PROCEDURE_TEXT: NCI tumour cell line growth inhibition, 48 h
The source made the active and inactive calls. No stated cut-off is given here; in the data, active = GI50 up to about 1.1 µM and inactive = higher.
OBSERVATION_TYPE: GI50

C/C(=N/Nc1nc(C)cc(O)n1)C(=O)O    > 100 µM (inactive)
CCOC(=O)Cn1c(=O)c2nc(SC)sc2n(CC)c1=S    5.78 µM (inactive)
O=C(O)CNS(=O)(=O)c1ccc(NCc2ccccc2)cc1    > 100 µM (inactive)
O=C1C(OC(=O)c2ccccc2)=C(c2ccc(O)cc2)C(=O)C(OC(=O)c2ccccc2)=C1c1ccc(O)cc1    > 100 µM (inactive)
CCCCCCSC[C@H](OC(C)=O)[C@@H](OC(C)=O)[C@@H](OC(C)=O)[C@@H](COC(C)=O)OC(C)=O    89.7 µM (inactive)
CCOC(=O)c1c(NC(=S)Nc2ccc(C)cc2)sc2c1CCN(C)C2    > 100 µM (inactive)
O=C1C(Cl)=C(N2CCN(C3=C(Cl)C(=O)c4ccccc4C3=O)CC2)C(=O)c2ccccc21    1.53 µM (inactive)
C#CCCCC(=C)C[C@H](OCc1ccccc1)[C@H]1OC(=O)[C@@H]1C    81.3 µM (inactive)
O=C(Cc1ccccc1)N/N=C(\C1=Nc2ccc([N+](=O)[O-])cc2NC1O)C(O)c1ccc([N+](=O)[O-])cc1 (stereo not given)    30.8 µM (inactive)
N#CN1CCC2CC(=O)CCC2C1 (stereo not given)    > 100 µM (inactive)
O=C(c1ccc(Cl)cc1)N(C(=S)OCc1ccccn1)c1ccccc1    65.3 µM (inactive)
CC1(C)C(C(=O)OC(C#N)c2cccc(OCC(=O)OCc3ccccc3)c2)C1(C)C (stereo not given)    48.6 µM (inactive)
C=CCCC(=O)CC(=O)OCc1ccccc1    > 100 µM (inactive)
COc1ccccc1C(O)(c1ccccc1)C(O)(c1ccccc1)c1ccccc1OC (stereo not given)    > 100 µM (inactive)
CC1=C(C)C(=O)c2c(cc3ccccn23)C1=O    14.2 µM (inactive)
O=[N+]([O-])c1ccccc1S(=O)(=O)c1ccccc1[N+](=O)[O-]    > 100 µM (inactive)
Cc1ccc([S+]([O-])C[C@@]2(C(F)F)NC(=O)NC2=O)cc1 (stereo not given in full)    > 100 µM (inactive)
O=[N+]([O-])/C=C/c1cn(CCCCCn2cc(/C=C/[N+](=O)[O-])c3ccccc32)c2ccccc12    1.44 µM (inactive)
O=C(NCCCCCCNC(=O)c1cccc2ccccc12)Nc1cccc2ccccc12    > 100 µM (inactive)
CC1=NN(c2ccccc2)C(=O)C1=C1SCCS1    > 79.4 µM (inactive)

---

- Tested on: OVCAR-8
- PROCEDURE_TEXT: NCI tumour cell line growth inhibition, 48 h
Activity calls are given as the source filed them. Cut-off read from the data, not from the text of the source: active = GI50 up to about 1.1 µM and inactive = higher.
Outcome codes: label 1 for active, label 0 for inactive

CC(C)C(Br)C(=O)NCC(=O)O (stereo not given)    label 0
CC1=C(C(=O)Nc2cccc(Cl)c2)C(c2ccccc2F)C(C(=O)Nc2cccc(Cl)c2)=C(C)N1    label 0
COc1ccc(NC(=O)C(=O)C(CC2C(=O)NC(=S)NC2=O)C(=O)c2ccc3ccccc3c2)c([N+](=O)[O-])c1 (stereo not given)    label 0
N#C/C(=C\c1ccc(O)cc1)C(N)=O    label 0
N#CC1(C#N)C(C#N)(C#N)C12CCCCCC2    label 0
Cc1nc2c(nc1C)C(=O)C1=C(C2=O)C2C=CC1CC2    label 0
CC(C)(C)OC(=O)N1CCCC1C(=O)NC(c1ccccc1)c1ccccc1 (stereo not given)    label 0
COc1ccc(NC2=CC(=O)C(=O)c3ccccc32)nn1    label 0
COC1C(O)C(C)OC(O[C@@H]2C[C@H]3CC[C@@H]4[C@H](CC[C@]5(C)[C@@H](C6=CC(=O)OC6)CC[C@]45O)[C@@]3(C)[C@H](O)C2)C1O (stereo not given in full)    label 1
CC1C2=CC=C(O2)C(C)(C)C2=CC=C(O2)C(C)(C)C2=CC=C(O2)C(C)(C)C2=CC=C1O2    label 0
